# STUDY TARGET: human recombinant A1 adenosine receptor (Homo sapiens, UniProt P30542)
# Sequence (P30542 whole entry): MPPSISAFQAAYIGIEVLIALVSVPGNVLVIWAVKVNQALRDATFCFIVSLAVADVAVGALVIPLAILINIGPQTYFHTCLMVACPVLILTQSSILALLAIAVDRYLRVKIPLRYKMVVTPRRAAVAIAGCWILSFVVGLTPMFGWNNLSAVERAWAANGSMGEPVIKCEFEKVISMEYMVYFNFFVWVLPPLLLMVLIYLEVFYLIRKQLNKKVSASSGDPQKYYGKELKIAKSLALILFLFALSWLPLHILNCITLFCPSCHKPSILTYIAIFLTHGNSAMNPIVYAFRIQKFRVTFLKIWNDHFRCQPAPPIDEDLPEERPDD
# EXPERIMENTAL PROTOCOL: [3H]-DPCPX binding to human A1 adenosine receptor expressed in CHO cells
# STUDY CONDITIONS: read-out: [3H] DPCPX binding to hA1; CHO cell membranes, 1 nM [3H]-DPCPX; geometric mean with confidence limits in parentheses
TEST READOUT: Ki (nM)
Quick reminder: number only, in nM, skip the unit.

INPUT: Reported Ki for `CCCn1c(=O)c2c(nc3[nH]c(C4CC4)cn32)n(Cc2ccccc2)c1=O` : what is it?
OUTPUT: 350

INPUT: Proceed to `CCCn1c(=O)c2c(nc3[nH]c(-c4ccccc4)cn32)n(CCC)c1=O`
OUTPUT: 373

INPUT: Proceed to `CCCn1c(=O)c2c(nc3[nH]c(C(C)C)cn32)n(Cc2ccccc2)c1=O`
OUTPUT: 460

INPUT: Proceed to `CC(C)Cn1c(=O)c2c(nc3[nH]c(-c4ccccc4)cn32)n(CC(C)C)c1=O`
OUTPUT: 476

###

Hi there, I'd appreciate the recorded cAMP assay in CHO hA22B, percentage in parentheses for every entry that follows.
# STUDY TARGET: human recombinant A2B adenosine receptor (Homo sapiens)
# Sequence (P29275 whole entry): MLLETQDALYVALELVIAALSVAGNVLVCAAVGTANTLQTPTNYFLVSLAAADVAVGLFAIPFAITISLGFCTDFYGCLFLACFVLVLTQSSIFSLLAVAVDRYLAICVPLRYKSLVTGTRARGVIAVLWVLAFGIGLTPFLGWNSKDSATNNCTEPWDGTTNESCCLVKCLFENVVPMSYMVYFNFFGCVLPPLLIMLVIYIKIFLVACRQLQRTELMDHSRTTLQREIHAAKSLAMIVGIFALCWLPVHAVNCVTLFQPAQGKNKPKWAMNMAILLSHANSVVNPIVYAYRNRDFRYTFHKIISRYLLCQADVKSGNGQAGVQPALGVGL
# EXPERIMENTAL PROTOCOL: cAMP assay in CHO hA2B
# Format: cell-based
# STUDY CONDITIONS: percentage given after the > bound; meaning not defined in the patent
Report field: quantity (unit follows the number).

INPUT: What reported cAMP assay in CHO hA22B, percentage in parentheses corresponds to `CCCn1c(=O)c2c(nc3n2CC(c2ccccc2)=NN3C)n(Cc2ccccc2)c1=O` on human recombinant A2B adenosine receptor (Homo sapiens)?
OUTPUT: 94%

INPUT: Proceed to `CCCn1c(=O)c2c(nc3[nH]c(CC)c(C)n32)n(Cc2ccccc2)c1=O`
OUTPUT: 73%

INPUT: Proceed to `CCCn1c(=O)c2c(nc3[nH]c(C(C)(C)C)cn32)n(Cc2ccccc2)c1=O`
OUTPUT: 86%

INPUT: Proceed to `CCCn1c(=O)c2c(nc3[nH]c(C4CC4)cn32)n(Cc2ccccc2)c1=O`
OUTPUT: 79%

INPUT: Proceed to `CCCn1c(=O)c2c(nc3n2CC(c2ccccc2)=NN3CCO)n(Cc2ccccc2)c1=O`
OUTPUT: 83%

INPUT: Proceed to `CCCn1c(=O)c2c(nc3[nH]c(-c4ccccc4)cn32)n(CCC)c1=O`
OUTPUT: 61%

INPUT: Proceed to `CC(C)Cn1c(=O)c2c(nc3[nH]c(-c4ccccc4)cn32)n(CC(C)C)c1=O`
OUTPUT: 99%

INPUT: Proceed to `CCCn1c(=O)c2c(nc3[nH]c(C)c(C)n32)n(Cc2ccccc2)c1=O`
OUTPUT: 82%

INPUT: Proceed to `CCCn1c(=O)c2c(nc3n2CC(CC)=C3)n(Cc2ccccc2)c1=O`
OUTPUT: 71%

INPUT: Proceed to `CCCn1c(=O)c2c(nc3[nH]c(C4CCCCC4)cn32)n(Cc2ccccc2)c1=O`
OUTPUT: 71%

INPUT: Proceed to `Cc1cn2c(nc3c2c(=O)n(C)c(=O)n3C)[nH]1`
OUTPUT: 88%

INPUT: Proceed to `CCCn1c(=O)c2c(nc3[nH]c(CC)cn32)n(Cc2ccccc2)c1=O`
OUTPUT: 97%

INPUT: Proceed to `CCCn1c(=O)c2c(nc3[nH]c(C(C)C)cn32)n(Cc2ccccc2)c1=O`
OUTPUT: 77%

INPUT: Proceed to CCCn1c(=O)c2c(nc3n2C(C)C(C)=C3)n(Cc2ccccc2)c1=O (centres unmarked)
OUTPUT: 60%

###

Hi there, I'd appreciate the recorded melting point for every entry that follows.
Quick reminder: number only, in °C, skip the unit.

INPUT: Reported melting point for `CCCn1c(=O)c2c(nc3[nH]c(-c4ccc(OC)cc4)cn32)n(Cc2ccccc2)c1=O` : what is it?
OUTPUT: 257

INPUT: Proceed to `CCCn1c(=O)c2c(nc3[nH]c(-c4ccccc4)cn32)n(Cc2ccccc2)c1=O`
OUTPUT: 255

INPUT: Proceed to `CCCn1c(=O)c2c(nc3[nH]c(C)cn32)n(Cc2ccccc2)c1=O`
OUTPUT: 255

INPUT: Proceed to `CCCn1c(=O)c2c(nc3[nH]c(CC)c(C)n32)n(Cc2ccccc2)c1=O`
OUTPUT: 230

INPUT: Proceed to `CCCn1c(=O)c2c(nc3[nH]c(C(C)(C)C)cn32)n(Cc2ccccc2)c1=O`
OUTPUT: 230

INPUT: Proceed to `CCCn1c(=O)c2c(nc3[nH]c(CC)cn32)n(Cc2ccccc2)c1=O`
OUTPUT: 285

###

# STUDY TARGET: human recombinant A3 adenosine receptors (Homo sapiens, UniProt P0DMS8)
# Construct: expressed in transfected cells; host or cells: CHO cells (membranes)
# Sequence (P0DMS8 whole entry): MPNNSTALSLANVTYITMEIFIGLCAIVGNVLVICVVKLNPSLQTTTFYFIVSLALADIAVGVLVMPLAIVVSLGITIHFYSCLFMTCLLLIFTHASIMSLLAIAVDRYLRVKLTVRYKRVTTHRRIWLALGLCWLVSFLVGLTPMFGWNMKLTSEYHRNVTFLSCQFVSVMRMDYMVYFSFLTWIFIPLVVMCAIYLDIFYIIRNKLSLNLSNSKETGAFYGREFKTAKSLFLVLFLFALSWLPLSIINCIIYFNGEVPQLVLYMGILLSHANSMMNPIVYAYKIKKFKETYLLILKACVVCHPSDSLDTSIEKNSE
# EXPERIMENTAL PROTOCOL: [3H]-MRE 3008F20 binding to hA3 receptors expressed in CHO cells
# STUDY CONDITIONS: percentage printed below the > bound; meaning not defined in the patent
TEST READOUT: [3H] MRE3008F20 binding to hA3 receptors, percentage in parentheses

CCCn1c(=O)c2c(nc3n2CC(c2ccccc2)=NN3CCO)n(Cc2ccccc2)c1=O [Compound 7] | (99%)
Cc1cn2c(nc3c2c(=O)n(C)c(=O)n3C)[nH]1 [Compound 27] | (93%)
CCCn1c(=O)c2c(nc3[nH]c(-c4ccc(-c5ccccc5)cc4)cn32)n(Cc2ccccc2)c1=O [Compound 4] | (90%)
CCCn1c(=O)c2c(nc3n2CC(c2ccccc2)=NN3C)n(Cc2ccccc2)c1=O [Compound 6] | (99%)

###

Hi there, I'd appreciate the recorded melting point for every entry that follows.
Quick reminder: number only, in °C, skip the unit.

INPUT: Reported melting point for CCCn1c(=O)c2c(nc3[nH]c(-c4ccc(-c5ccccc5)cc4)cn32)n(Cc2ccccc2)c1=O [Compound 4] : what is it?
OUTPUT: 272

INPUT: Proceed to CCCn1c(=O)c2c(nc3[nH]c(C)c(C)n32)n(Cc2ccccc2)c1=O [Compound 25]
OUTPUT: 259

INPUT: Proceed to CCCn1c(=O)c2c(nc3[nH]c(-c4ccc(F)cc4)cn32)n(Cc2ccccc2)c1=O [Compound 5]
OUTPUT: 250

###

# STUDY TARGET: human recombinant A3 adenosine receptors (Homo sapiens, UniProt P0DMS8)
# EXPERIMENTAL PROTOCOL: [3H]-MRE 3008F20 binding to hA3 receptors expressed in CHO cells
# STUDY CONDITIONS: CHO cell membranes, 1 nM [3H]-MRE 3008F20; geometric mean, confidence limits in the line below; read-out: [3H] MRE3008F20 binding to hA3 receptors expressed in CHO cells Ki
Please use Y for Ki under 100 nM and N for everything else, ties included.

INPUT: # check: Ki < 100 nM for `CCCn1c(=O)c2c(nc3n2CC(C)=C3)n(Cc2ccccc2)c1=O`
OUTPUT: Y

INPUT: Proceed to `CCCn1c(=O)c2c(nc3[nH]c(C(C)C)cn32)n(Cc2ccccc2)c1=O`
OUTPUT: Y

INPUT: Proceed to `CCCn1c(=O)c2c(nc3[nH]c(-c4ccc(OC)cc4)cn32)n(Cc2ccccc2)c1=O`
OUTPUT: Y

INPUT: Proceed to `CC(C)Cn1c(=O)c2c(nc3[nH]c(-c4ccccc4)cn32)n(CC(C)C)c1=O`
OUTPUT: N

INPUT: Proceed to `CCCn1c(=O)c2c(nc3[nH]c(CC)c(C)n32)n(Cc2ccccc2)c1=O`
OUTPUT: Y

INPUT: Proceed to `CCCn1c(=O)c2c(nc3[nH]c(C)c(C)n32)n(Cc2ccccc2)c1=O`
OUTPUT: Y

INPUT: Proceed to `CCCn1c(=O)c2c(nc3n2CC(c2ccccc2)=NN3CCO)n(Cc2ccccc2)c1=O`
OUTPUT: N

INPUT: Proceed to CCCn1c(=O)c2c(nc3n2C(C)C(C)=C3)n(Cc2ccccc2)c1=O (stereo not shown)
OUTPUT: Y

INPUT: Proceed to `CCCn1c(=O)c2c(nc3[nH]c(-c4ccc(F)cc4)cn32)n(Cc2ccccc2)c1=O`
OUTPUT: Y

INPUT: Proceed to `CCCn1c(=O)c2c(nc3[nH]c(C4CC4)cn32)n(Cc2ccccc2)c1=O`
OUTPUT: Y

INPUT: Proceed to `CCCn1c(=O)c2c(nc3[nH]c(-c4ccccc4)cn32)n(Cc2ccccc2)c1=O`
OUTPUT: N

INPUT: Proceed to `CCCn1c(=O)c2c(nc3[nH]c(-c4ccc(-c5ccccc5)cc4)cn32)n(Cc2ccccc2)c1=O`
OUTPUT: N

INPUT: Proceed to `CCCn1c(=O)c2c(nc3n2CC(c2ccccc2)=C3)n(Cc2ccccc2)c1=O`
OUTPUT: N

INPUT: Proceed to `CCCn1c(=O)c2c(nc3[nH]c(C4CCCCC4)cn32)n(Cc2ccccc2)c1=O`
OUTPUT: N

INPUT: Proceed to `CCCn1c(=O)c2c(nc3[nH]c(CC)cn32)n(Cc2ccccc2)c1=O`
OUTPUT: Y

INPUT: Proceed to `CCCn1c(=O)c2c(nc3n2CC(c2ccccc2)=NN3C)n(Cc2ccccc2)c1=O`
OUTPUT: N

INPUT: Proceed to `Cc1cn2c(nc3c2c(=O)n(C)c(=O)n3C)[nH]1`
OUTPUT: N
